System: EKVX NSCLC
Procedure Text: NCI tumour cell line growth inhibition, 48 h
Assay Metric: TGI (µM)

> print(dat)
                         structure.notation  measurement.unit  rel  reported.value
1  Cc1cc2/c(=C\c3ccc(N(C)C)cc3)c3ccccc3n2[n+]1C                µM    =            8.79
2        COc1ccc2c(=O)cc(-c3ccccc3)[nH]c2c1                µM    >             100
3  COc1cc(F)c(F)c(Nc2ccc(I)cc2F)c1NS(=O)(=O)C1(C[C@H](O)CO)CC1                µM    >              10
4            CC1=NC2=Nc3nc(C)cc[n+]3CN2C=C1                µM    =            75.8
5  Nc1ccccc1C#C/C=C\C#Cc1ccc(OCCCNC(=O)c2cc3ccccc3[nH]2)cc1                µM    =            92.7
6  O=c1/c(=C/c2ccccc2[N+](=O)[O-])sc2nc3ccccc3n12                µM    >             100
7  Cn1c(-c2c(N)n(Nc3cccc(Cl)c3)c3nc(C#N)c(C#N)nc23)nc2ccccc21                µM    =            7.45
8  O=S(=O)(NC1=NCCN1C(=S)SN1CCn2c1nsc2=S)c1cccc2ccccc12                µM    >             100
